- assay.target: Tyrosyl-tRNA synthetase, putative (Trypanosoma cruzi (strain CL Brener)) (UniProt Q4DSP6)
- Sequence (Q4DSP6 as listed by the source): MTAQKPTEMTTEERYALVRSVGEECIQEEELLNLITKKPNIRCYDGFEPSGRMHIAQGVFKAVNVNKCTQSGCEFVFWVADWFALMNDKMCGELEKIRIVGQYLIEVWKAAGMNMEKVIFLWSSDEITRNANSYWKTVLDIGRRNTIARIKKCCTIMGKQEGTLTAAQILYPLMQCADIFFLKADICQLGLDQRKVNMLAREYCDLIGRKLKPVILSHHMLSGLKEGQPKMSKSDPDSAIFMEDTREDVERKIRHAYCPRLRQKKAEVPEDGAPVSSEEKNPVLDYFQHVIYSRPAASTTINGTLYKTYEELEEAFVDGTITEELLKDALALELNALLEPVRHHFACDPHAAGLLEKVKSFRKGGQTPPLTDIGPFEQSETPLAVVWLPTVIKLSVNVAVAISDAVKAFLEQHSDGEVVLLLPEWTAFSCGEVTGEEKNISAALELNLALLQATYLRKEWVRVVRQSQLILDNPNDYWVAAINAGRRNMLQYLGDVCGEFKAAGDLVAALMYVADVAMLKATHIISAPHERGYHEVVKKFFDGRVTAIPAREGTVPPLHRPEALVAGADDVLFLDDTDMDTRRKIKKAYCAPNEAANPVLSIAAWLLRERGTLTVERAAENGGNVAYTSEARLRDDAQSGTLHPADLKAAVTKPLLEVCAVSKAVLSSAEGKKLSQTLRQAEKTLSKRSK
- experiment.summary: Trypanosoma cruzi tyrosyl tRNA synthetase (TcYRS) SOP
- Format: functional
- Design: scale not given: direction of the effect not stated beside the values
- condition.label: 30 µM
readout.type: Percent Effect (%)
Field format: number, assumed %, no unit text.

[in] Report Percent Effect for `O=C(NCc1cnc2n1CCN(Cc1ccsc1)CC2)C1CCC1` please.
[out] 13.6

[in] # get_value(readout='Percent Effect', item= `Cc1occc1C(=O)N1CCc2ncnc(-c3cnn(C)c3)c2CC1` )
[out] 3.7

[in] Recorded Percent Effect for Cc1nc(COCc2cnc3n2CCN(C2CCC2)C3C)cs1 (stereo unspecified) , please?
[out] 7.5

[in] Sample `Cn1cc(CN2CCn3cc(CNC(=O)C4CCC4)nc3C2)cn1` — what was its Percent Effect?
[out] 12.5

[in] Query: Percent Effect; subject: COc1ccccc1OCc1cc(C(=O)N2CC=CC2C(C)C)n[nH]1 (stereo unspecified)
[out] 7.69

[in] State the recorded Percent Effect for this entry: NC(=O)c1cc(C2CCCN(C(=O)CCc3ccsc3)C2)n[nH]1 (stereo unspecified)
[out] 7.32

[in] Find the recorded Percent Effect belonging to CNS(=O)(=O)c1ccc(C(=O)NC2CCc3nc(C)cn3C2)o1 (stereo unspecified) and report it.
[out] 17.1

[in] Reported Percent Effect for `CN(C)CCNC(=O)c1ccc(OC2CCN(S(C)(=O)=O)CC2)c(Cl)c1` : what is it?
[out] 21

[in] Fill blank: measured Percent Effect of the compound c1csc(-c2nc(CN3CCOC(Cn4cncn4)C3)cs2)c1 (stereo unspecified) is ____.
[out] 6.17

[in] # query: Percent Effect of entry CCc1c(C)nc2cc(C3CCN(Cc4ccccc4F)C3)nn2c1O (stereo unspecified)
[out] 9.09

[in] Tell me the measured Percent Effect of `Cn1ccc2c(C(=O)N3CCC(C(N)=O)CC3)cccc21` , please.
[out] 17.9

[in] Item `COc1ccnc(N2CCN(C(=O)NCc3ccc(C)s3)CC2)n1` has what recorded Percent Effect?
[out] 18.8

[in] Given the entry CC(C)c1noc(C(C)N2CCN(CCN3CCCC3=O)CC2)n1 (stereo unspecified) , report its measured Percent Effect.
[out] 1.24

[in] What value of measured Percent Effect is listed for O=C(c1cccnc1O)N(Cc1ccsc1)CC1CCCO1 (stereo unspecified) ?
[out] 17.1

[in] I would be grateful if you could share the reported Percent Effect for FC(F)(F)COCCN1CCCC(c2noc(C3CC3)n2)C1 (stereo unspecified) .
[out] 11.1

[in] Percent Effect lookup needed for Cc1cc(CN2CCCC2c2noc(C3CC3)n2)c2ccccc2n1 (stereo unspecified) , thanks.
[out] 3.66

[in] Fill in the blank: the reported Percent Effect of `CCOC(=O)N1CCN(Cc2ccc(OCc3nccn3C)cc2)CC1` is ____.
[out] 14.6

[in] For the compound shown here, `O=C(NCC1CC1)[C@H]1C[C@H]2OCC[C@H]2N(CCc2ccccc2)C1` , give the reported Percent Effect.
[out] 5.13

[in] So what does the record say about Percent Effect for Cc1nc(CNCC2CCCN2c2cccnn2)no1 (stereo unspecified) ?
[out] 14.1

[in] I would be grateful if you could share the reported Percent Effect for `O=C(CCc1ccccn1)N1CCc2cc(Cl)cc(Cl)c2C1` .
[out] -3.7

[in] Bench note: what Percent Effect did `Cc1csc(N2CCCN(Cc3noc(C)n3)CC2)n1` show?
[out] 7.59

[in] Look up Percent Effect for this compound: `CCCS(=O)(=O)N1CCC(NC(=O)c2cc(C)c(CC)s2)CC1`
[out] 18.5

[in] If you can, please state the reported Percent Effect value of Cc1nc(C)n(CC2CCCCN2CC(=O)N(C)Cc2ccco2)n1 (stereo unspecified) .
[out] -2.35

[in] For CC(C)C(C(=O)N1CCN(Cc2ccncc2)CC1)n1cncn1 (stereo unspecified) , what is its reported Percent Effect?
[out] 11.1

[in] Form field: reported Percent Effect of `O=C1CN(Cc2nnc(-c3ccc(Br)o3)o2)CCN1`
[out] 0

[in] Please look up its Percent Effect: COCC(NC(=O)c1ccc[nH]1)c1cccc(C(F)(F)F)c1 (stereo unspecified)
[out] 10

[in] Report Percent Effect for `CC(=O)N1CCC(C(=O)NCCN2CCC(C)CC2)CC1` please.
[out] 5.13

[in] Percent Effect lookup needed for `CCN(CC)CCNC(=O)c1cc(C(C)C)nc(N2CCCC2)n1` , thanks.
[out] 12.8

[in] Please report the recorded Percent Effect for `CN(Cc1cnn(C)c1)C(=O)NCc1csc(Br)c1` .
[out] -1.22

[in] Which Percent Effect value belongs to CC(C)c1nc(C(=O)N2CCOCC2CC(=O)c2ccco2)c[nH]1 (stereo unspecified) ?
[out] 0

[in] // Percent Effect lookup, key: Cc1noc(C)c1C(=O)N1CCCC1c1c(C)nn(C)c1Cl (stereo unspecified)
[out] 8.86

[in] What Percent Effect value was documented for this compound, `CC(C)Sc1nnc(CCNC(=O)OC(C)(C)C)o1` ?
[out] -12.8

[in] What Percent Effect value was documented for this compound, Cc1cnn(CC2CN(Cc3nc(N)c4ccccc4n3)CCO2)c1 (stereo unspecified) ?
[out] 11.8

[in] Query (compound): Cc1csc(CNC(=O)NCC(O)c2cccc(Cl)c2)n1 (stereo unspecified) ; field requested: Percent Effect
[out] 12.2

[in] What value of Percent Effect has been recorded for this entry: CC(C)c1nc(C2CCCN(C(=O)CCCn3cncn3)C2)no1 (stereo unspecified)
[out] 16.1

[in] Entry `CN(CCCc1ccccc1)Cc1nc2c(cnn2C)c(=O)[nH]1` has what Percent Effect?
[out] 13.6

###

- assay.target: Sialic acid-binding Ig-like lectin 9 (Homo sapiens) (UniProt Q9Y336)
- Sequence (Q9Y336 whole entry): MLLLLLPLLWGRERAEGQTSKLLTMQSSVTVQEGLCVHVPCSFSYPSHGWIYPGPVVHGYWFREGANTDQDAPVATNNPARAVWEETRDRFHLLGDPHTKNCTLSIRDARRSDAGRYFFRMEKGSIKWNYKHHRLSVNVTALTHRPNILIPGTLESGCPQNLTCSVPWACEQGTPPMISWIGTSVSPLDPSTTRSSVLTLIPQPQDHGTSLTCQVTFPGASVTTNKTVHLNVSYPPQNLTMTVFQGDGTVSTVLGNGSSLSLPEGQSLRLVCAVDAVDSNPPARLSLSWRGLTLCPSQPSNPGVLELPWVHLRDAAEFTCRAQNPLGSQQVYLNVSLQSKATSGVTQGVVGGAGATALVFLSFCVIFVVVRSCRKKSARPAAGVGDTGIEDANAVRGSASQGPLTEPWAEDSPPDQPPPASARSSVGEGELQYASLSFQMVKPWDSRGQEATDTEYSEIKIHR
- experiment.summary: Hs-Siglec9 ALPHAscreen SOP 20170721
- Set-up: scale not given: direction of the effect not stated beside the values
- condition.label: 10 µM
So I've got a bunch of compounds here, and I need their Percent Effect values.
Number in %, nothing else.

[in] Using the record for CCOC(=O)NC(CNC(=O)c1ncccn1)CC(C)C (centres undefined) , report its Percent Effect.
[out] 31.5

[in] Name the recorded Percent Effect for `CCc1noc(CNc2ccc(F)cc2OCC2CC2)n1` .
[out] 18.2

[in] Given the entry `CCN(CCNC(=O)c1ccccc1OCCOC)C1CC1` , report its measured Percent Effect.
[out] -8.11

[in] Using the record for `CC(C)c1ccc(OCn2ccc(C(=O)N3CCCC3)n2)cc1` , report its Percent Effect.
[out] 12.1

###

- assay.target: AMP-activated protein kinase, AMPK (Homo sapiens) (UniProt P54646+O43741+P54619+Q9UGJ0+Q9Y478+Q13131+Q9UGI9)
- experiment.summary: AMP-dependent Kinase enzyme assay. An in vitro enzyme assay that detects ADP turnover that is directly proportional to AMPK activity. This uses naive AMPK that is activated during the assay with MK-8722
- Assay type: functional
- Parameters: scale not given: direction of the effect not stated beside the values
- condition.label: 30 µM
Can you tell me Percent Effect for the items I'm about to list?
State the answer as a number, implicitly in %.

[in] Look up Percent Effect: Cc1cc(C)c2cc(CNCC3CCCO3)c3nn(C)c(=O)n3c2c1 (centres undefined)
[out] 5.25

[in] Fill blank: measured Percent Effect of the molecule Cc1cc(C)n(CC2CN(Cc3nnsc3Cl)CCO2)n1 (centres undefined) is ____.
[out] 3.21

[in] Bench note: what Percent Effect did O=C(NCC(O)c1cccc(F)c1)c1cccnc1O (centres undefined) show?
[out] -2.16

[in] Which Percent Effect value belongs to CC(O)CN(CC(=O)NC(=O)NCC(F)(F)F)c1ccccc1 (centres undefined) ?
[out] 6

[in] Quick check: Percent Effect of Cc1cc(CNC(=O)NC(C)c2ccncc2)no1 (centres undefined) ?
[out] 2.08

[in] Reported Percent Effect for `N#Cc1ccc(C(=O)N2CCn3c(Cn4cccn4)cnc3C2)cc1` : what is it?
[out] 0.576

[in] For the molecule `Cc1ccccc1CS(=O)(=O)CC(=O)NCc1ccccc1F` , what Percent Effect is on record?
[out] 11.2

[in] Which Percent Effect value belongs to Cc1cc(C)n(CC2CCCN2C(=O)c2ccc3c(c2)nnn3C)n1 (centres undefined) ?
[out] -3.73

[in] Need Percent Effect of `CC(C)S(=O)(=O)c1nnc(CCNC(=O)OC(C)(C)C)o1` , thanks.
[out] 2.34

[in] Could you tell me which Percent Effect is on file for `Cc1ncsc1CN1C[C@@H]2COC[C@]2(COc2ccc(C#N)cn2)C1` ?
[out] -1.94

[in] Query (molecule): `CN(C)CCN1CCO[C@@H]2CN(C(=O)c3cccs3)CC[C@@H]2C1` ; field requested: Percent Effect
[out] 3.88

[in] State the recorded Percent Effect for this entry: `COc1cccc(C(=O)Nc2cc(CC(C)C)nn2C)c1`
[out] -7.56

[in] What value of measured Percent Effect is listed for `Cc1[nH]ccc1C(=O)Nc1cccc(CN2CCC(CO)CC2)c1` ?
[out] -7.05

[in] State the recorded Percent Effect for this entry: `COCCCN(CCOC)C(=O)Nc1ccc(C)cc1C`
[out] -30.8

[in] What does the record list as Percent Effect for `CCCN1CCN(C(=O)c2scnc2C)CC1` ?
[out] 0.673

[in] Request the reported Percent Effect associated with `CCOc1cc(C)nc(N2CCN(Cc3nccn3C)CC2)n1`
[out] -6.46

[in] If you can, please state the reported Percent Effect value of Cc1nc(CN(C)C2CCN(CC(=O)NC3CCOCC3)C2)no1 (centres undefined) .
[out] -9.99

[in] What value of Percent Effect has been recorded for this entry: CC(C)CCN1CC2(CCCN(C(=O)c3cscn3)C2)CCC1=O (centres undefined)
[out] 1.5

[in] Item under review: Cc1nnc(C(C)N2CCN(Cc3ccc4c(c3)OCO4)CC2)o1 (centres undefined) . Reported Percent Effect?
[out] -13.4

[in] Need Percent Effect, item `Cc1ccsc1[C@@H]1CCN(C(=O)c2cc3ccccc3[nH]2)C[C@H]1O`
[out] 0.967

[in] Recorded Percent Effect of CS(=O)(=O)CCN1CCC2(CCCN(C3CCOCC3)C2=O)C1 (centres undefined) , please.
[out] -4.09

[in] Using the record for `CNC(=O)CS(=O)(=O)Cc1cc(Cl)c2c(c1)OCCCO2` , report its Percent Effect.
[out] -5.11

[in] What value of measured Percent Effect is listed for CCOCC(O)CN1CCN(C(=O)CC(C)C)CC1 (centres undefined) ?
[out] -2.25

[in] Requested read-out: Percent Effect. Entry: CC(NC(=O)c1nc(=O)[nH][nH]1)c1ccc(OCC2CC2)c(F)c1 (centres undefined)
[out] -0.945

[in] Requested read-out: Percent Effect. Entry: `Cc1cccc(C(=O)NCc2ccnc(N(C)C)c2)n1`
[out] 2.32

[in] Given Cc1ccc(N2CCCC(NCc3ccncc3)C2)nn1 (centres undefined) , state its recorded Percent Effect.
[out] -4.43

[in] Consider the molecule COc1c(CNC2CCCc3ccccc32)c(C)nn1C (centres undefined) and give its measured Percent Effect.
[out] -16.2

[in] Which Percent Effect is listed for O=C(NCC(Cc1cccc(F)c1)N1CCCC1=O)c1ccccc1 (centres undefined) ?
[out] 27.6

[in] Please look up its Percent Effect: COCC1c2c(cnn2C)CCN1Cc1ccoc1 (centres undefined)
[out] 3.57

[in] # lookup: Percent Effect of CC1(NC(=O)Cc2csc(C(C)(C)C)n2)CCS(=O)(=O)C1 (centres undefined)
[out] -17.7

[in] Looking for the measured Percent Effect of CC(C)c1nc(C2CCCN(C(=O)CCCn3cncn3)C2)no1 (centres undefined) , can you help?
[out] -6.76

[in] Name the reported Percent Effect value associated with the molecule `CCN1CCN(C2CCN(Cc3noc(C)n3)CC2)C1=O`
[out] -3.66

[in] Give the measured Percent Effect of `CSc1ncc(C(=O)N2C[C@H]3CC[C@@H]2CN(Cc2ccccc2)C3)cn1` .
[out] 22.7

[in] Param item = Cc1cnn(CC2CCCN2Cc2nccn2C)c1 (centres undefined) ; retrieve measured Percent Effect.
[out] -3.78

Origin of the recorded values: ChEMBL document CHEMBL3988442
